Target: Leukotriene B4 receptor 1 (Homo sapiens)
Sequence (Q15722 whole entry): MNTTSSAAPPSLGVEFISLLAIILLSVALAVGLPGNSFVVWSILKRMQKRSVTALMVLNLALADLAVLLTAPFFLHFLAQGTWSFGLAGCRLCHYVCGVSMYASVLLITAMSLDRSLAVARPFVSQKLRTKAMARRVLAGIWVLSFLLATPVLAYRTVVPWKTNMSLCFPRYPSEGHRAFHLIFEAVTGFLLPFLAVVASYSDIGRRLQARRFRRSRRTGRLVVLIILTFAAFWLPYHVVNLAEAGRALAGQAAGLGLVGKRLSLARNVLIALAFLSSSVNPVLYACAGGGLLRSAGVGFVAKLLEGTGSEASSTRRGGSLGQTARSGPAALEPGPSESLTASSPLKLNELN
Test Details: Compound tested for binding affinity against Leukotriene B4 receptor using radioligand binding assay from Human PMN cells at a concentration of 300 nM.
Format: cell-based
Assay Endpoint: I (%)

Here is how some compounds turned out for I.
CN(CCc1ccccc1)C(=O)Cc1ccc(OCc2ccccc2)c(/C=C/C(=O)O)c1 = 27
CN(CCc1ccccc1)C(=O)Cc1cc(CC(=O)O)cc(OC/C=C/c2ccccc2)c1 = 16
CN(CCc1ccccc1)C(=O)Cc1cc(OCc2ccccc2)ccc1C(=O)O = 28

(1) CN(CCc1ccccc1)C(=O)Cc1ccc(-c2ccccc2)c(CO)c1
(2) C/C(=C\C(=O)O)c1cc(CC(=O)N(C)CCc2ccccc2)cc(OCc2ccccc2)c1
(3) COC(=O)c1cc(CC(=O)N(C)CCc2ccccc2)ccc1-c1ccccc1
Lookup: Order by I, ascending. # the answer lists labels in the order requested
Found: 3, 1, 2
(3: 0%, 1: 18%, 2: 29%)
